The reported numbers originate from the supplement of paper PMC10266784.

B1: library; numbered along this chain (parent)
chain: MAAAAAAAAEQQSSNGPVKKSMREKAVERRSVNKEHNSNFKAGYIPIDEDRLHKTGLRGRKGNLAICVIILLFILAVINLIITLVIWAVIRIGPNGCDSMEFHESGLLRFKQVSDMGVIHPLYKSTVGGRRNENLVITGNNQPIVFQQGTTKLSVENNKTSITSDIGMQFFDPRTQNILFSTDYETHEFHLPSGVKSLNVQKASTERITSNATSDLNIKVDGRAIVRGNEGVFIMGKTIEFHMGGNMELKAENSIILNGSVMVSTTRLPSSSSGDQLGSGDWVRYKLCMCADGTLFKVQVTSQNMGCQISDNPCGNTH

# Variants of: B1
# experimental details: SGCB cell-surface expression functional score (HA stain, bin4 vs bin1, normalised to synonymous) (log10 ratio); higher = more cell-surface SGCB (functional)
Threshold rule: SGCB cell-surface expression functional score (log10) greater than or equal to 0.04 is T; below that, F.

G56P :: T
C314V :: F
R284Q :: T

Item `S99W` with SGCB cell-surface expression functional score (log10) of 0.04 or above?
F
